Every entry's value here was drawn from ChEMBL document CHEMBL1127859.

- protocol-text: Tested for the inhibitory activity against Glycosomal glyceraldehyde 3-phosphate dehydrogenase (gGAPDH) of Leishmania mexicana
Each entry below carries its recorded pIC50.
In textbook form, pIC50 equals minus log to base ten of the concentration in mol/L.

Below, 5 compounds whose answers are already recorded.
Nc1ncnc2c1ncn2[C@@H]1O[C@H](CO)[C@@H](O)[C@H]1NC(=O)c1ccccc1 : 2.48
Nc1ncnc2c1ncn2[C@@H]1O[C@H](CO)[C@@H](O)[C@H]1NC(=O)c1cccs1 : 2.62
Cc1nc(N)c2ncn([C@@H]3O[C@H](CO)[C@@H](O)[C@H]3O)c2n1 : 2.22
COc1cccc(C(=O)N[C@@H]2[C@H](O)[C@@H](CO)O[C@H]2n2cnc3c(N)ncnc32)c1 : 3.52
Nc1ncnc2c1nc(-c1cccs1)n2[C@@H]1O[C@H](CO)C(O)[C@H]1O (single isomer, unassigned) : 3.30

Req: Recorded pIC50 for Nc1ncnc2c1ncn2[C@@H]1O[C@H](CO)[C@@H](O)[C@H]1O , please?
Resp: 1.30

###

- protocol-text: Tested for the inhibitory activity against Glycosomal glyceraldehyd 3-phosphate dehydrogenase (gGAPDH) of Trypanosoma brucei
value-kind: pIC50
Kindly note that pIC50 refers to -log10 of the concentration in mol/L and answer with the value alone.

Req: Fill in: pIC50 of Nc1ncnc2c1nc(-c1cccs1)n2[C@@H]1O[C@H](CO)C(O)[C@H]1O (single isomer, unassigned) is ___
Resp: 3.22

###

- protocol-text: Tested for the inhibitory activity against Glycosomal glyceraldehyde 3-phosphate dehydrogenase (gGAPDH) of Trypanosoma brucei
Listed next: entries and their corresponding IC50.
Just the number in mM, nothing appended.

Some entries whose results are on file:
Nc1ncnc2c1ncn2[C@@H]1O[C@H](CO)[C@@H](O)[C@H]1O : 100
Cc1nc(N)c2ncn([C@@H]3O[C@H](CO)[C@@H](O)[C@H]3O)c2n1 : 8
Nc1ncnc2c1nc(-c1ccccc1)n2[C@@H]1O[C@H](CO)[C@@H](O)[C@H]1O : 10
COc1cccc(C(=O)N[C@@H]2[C@H](O)[C@@H](CO)O[C@H]2n2cnc3c(N)ncnc32)c1 : 2.2
Nc1ncnc2c1ncn2[C@@H]1O[C@H](CO)[C@@H](O)[C@H]1NC(=O)c1cccs1 : 5

Please look at the following molecule next.
Req: Requested read-out: IC50. Entry: Nc1ncnc2c1ncn2[C@@H]1O[C@H](CO)[C@@H](O)[C@H]1NC(=O)c1ccccc1
Resp: 6

###

Reported pIC50 values for a set of molecules
- target-system: Glyceraldehyde-3-phosphate dehydrogenase (Homo sapiens)
- Sequence (P04406 whole entry): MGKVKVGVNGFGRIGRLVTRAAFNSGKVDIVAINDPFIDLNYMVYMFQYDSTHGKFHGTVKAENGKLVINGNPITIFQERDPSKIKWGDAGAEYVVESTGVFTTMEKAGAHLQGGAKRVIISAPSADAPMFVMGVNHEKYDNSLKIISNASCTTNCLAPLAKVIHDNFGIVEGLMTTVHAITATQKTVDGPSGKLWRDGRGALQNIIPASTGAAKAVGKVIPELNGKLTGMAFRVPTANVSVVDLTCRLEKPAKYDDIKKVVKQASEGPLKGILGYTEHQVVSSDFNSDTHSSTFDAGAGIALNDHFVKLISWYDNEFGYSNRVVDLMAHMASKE
- protocol-text: Tested for the inhibitory activity against Glycosomal glyceraldehyde 3-phosphate dehydrogenase (gGAPDH) of human erythrocyte
// pIC50 here means minus log10 of the molar concentration (mol/L)

Nc1ncnc2c1ncn2[C@@H]1O[C@H](CO)[C@@H](O)[C@H]1O : 1.46

// below: pIC50 requested for another molecule
Req: I am curious: what pIC50 value has been reported for Nc1ncnc2c1nc(-c1ccccc1)n2[C@@H]1O[C@H](CO)[C@@H](O)[C@H]1O ?
Resp: 2.00
